Molecular target: HLA-A*02:01 molecule (product of HLA-A*02:01 gene) (human)
Experiment: flow cytometry, T2 cells + β2m, peptide dilution series, BB7.2 staining
This listing pairs binders with measured Binding Experiment Data (log Kd).

{"BINDER": "KLLQDFFNG (modifications not checked) [peptide … (SEQ ID NO: 4)]", "UNIT TEXT": "log Kd", "Binding Experiment Data (log Kd)": -4.96}
{"BINDER": "LLLDVAPLS (modifications not checked) [peptide … (SEQ ID NO: 8)]", "UNIT TEXT": "log Kd", "Binding Experiment Data (log Kd)": -6.06}
{"BINDER": "VLVGGSTRI (modifications not checked) [peptide … (SEQ ID NO: 5)]", "UNIT TEXT": "log Kd", "Binding Experiment Data (log Kd)": -4.86}
{"BINDER": "SVTNAVITV (modifications not checked) [peptide … (SEQ ID NO: 15)]", "UNIT TEXT": "log Kd", "Binding Experiment Data (log Kd)": -4.76}
{"BINDER": "YGAAVQAAI (modifications not checked) [peptide … (SEQ ID NO: 7)]", "UNIT TEXT": "log Kd", "Binding Experiment Data (log Kd)": -4.9}
{"BINDER": "NQPGVLIQV (modifications not checked) [peptide … (SEQ ID NO: 14)]", "UNIT TEXT": "log Kd", "Binding Experiment Data (log Kd)": -5.91}
{"BINDER": "ITRARFEEL (modifications not checked) [peptide … (SEQ ID NO: 10)]", "UNIT TEXT": "log Kd", "Binding Experiment Data (log Kd)": -4.33}
{"BINDER": "NLLGRFELS (modifications not checked) [peptide … (SEQ ID NO: 11)]", "UNIT TEXT": "log Kd", "Binding Experiment Data (log Kd)": -4.56}
{"BINDER": "MVLTKMKEI (modifications not checked) [peptide … (SEQ ID NO: 6)]", "UNIT TEXT": "log Kd", "Binding Experiment Data (log Kd)": -4.59}
{"BINDER": "AQIHDLVLV (modifications not checked) [peptide … (SEQ ID NO: 12)]", "UNIT TEXT": "log Kd", "Binding Experiment Data (log Kd)": -6.15}
{"BINDER": "AMTKDNNLL (modifications not checked) [peptide … (SEQ ID NO: 9)]", "UNIT TEXT": "log Kd", "Binding Experiment Data (log Kd)": -5.56}
{"BINDER": "YAFNMKSAV (modifications not checked) [peptide … (SEQ ID NO: 13)]", "UNIT TEXT": "log Kd", "Binding Experiment Data (log Kd)": -5.09}

Data origin, for the record: patent US20180169199A1
